The origin of these recorded values is patent US20150353495A1.

Target: JAK2 (Homo sapiens, UniProt O60674)
Construct: 5 μl of catalytic domain recombinant Kinase enzyme+Tyr peptide substrate (Invitrogen, CA)
Sequence (O60674 849-1124 limits assumed): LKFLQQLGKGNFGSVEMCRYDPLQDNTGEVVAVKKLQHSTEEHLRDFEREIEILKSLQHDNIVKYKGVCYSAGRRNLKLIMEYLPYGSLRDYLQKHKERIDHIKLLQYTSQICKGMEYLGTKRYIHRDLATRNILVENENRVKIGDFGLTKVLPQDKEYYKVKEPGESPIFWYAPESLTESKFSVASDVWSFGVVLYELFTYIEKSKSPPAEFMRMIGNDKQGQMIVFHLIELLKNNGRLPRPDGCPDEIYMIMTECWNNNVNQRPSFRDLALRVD
Test: Z'-LYTE kinase assay JAK2
pIC50: −log10 of the molar value.
Measured pIC50 accompanies every entry in the list below.

chemical_structure=CC(=O)Nc1ccc(Nc2cc(NCc3cncc(F)c3)c(C(N)=O)cn2)cc1 reported="6.00 to 7.00"

Please fill in: pIC50 reported for Cn1cc(CNc2cc(Nc3ccc(C4CCOCC4)cc3)ncc2C(N)=O)cn1 = < 6.00

Item: CN(C)C(=O)C1CN(c2ccc(Nc3cc(NCc4ccccc4)c(C(N)=O)cn3)cc2F)C1 | pIC50: 6.00 to 7.00

Lab note: measured pIC50 of COCCOc1cccc(Nc2cc(NCc3ccccc3)c(C(N)=O)cn2)c1 was 6.00 to 7.00

// recorded pIC50 for NC(=O)c1cnc(Nc2ccc(C3CCOCC3)cc2)cc1NCc1nccs1 : 6.00 to 7.00

Query CC(=O)N1CCC[C@H](CNc2cc(Nc3ccc(C(=O)N(C)C)c(C(F)(F)F)c3)ncc2C(N)=O)C1 yields pIC50 of < 6.00

Per the record, CC(C)N1CCC(c2ccc(Nc3cc(NCc4ccccc4F)c(C(N)=O)cn3)cc2)CC1 has pIC50 of 7.00 to 8.00

Record summary for CCC(=O)N1CCC(c2ccc(Nc3cc(N[C@H](C)C(C)(C)C)c(C(N)=O)cn3)cc2)CC1 : reported pIC50 = 7.00 to 8.00

// recorded pIC50 for CCS(=O)(=O)N1CCC[C@H](CNc2cc(Nc3ccc(OC)cc3)ncc2C(N)=O)C1 : 6.00 to 7.00

----------
Listed here are compounds together with their documented pIC50.
Target: JAK2 (Homo sapiens, UniProt O60674)
Construct: 5 μl of catalytic domain recombinant Kinase enzyme+Tyr peptide substrate (Invitrogen, CA)
Assay: Z'-LYTE kinase assay JAK2
pIC50: −log10 of the molar value.

chemical_structure=Cc1cc(Nc2cc(NCc3cccc4cc[nH]c34)c(C(N)=O)cn2)ccc1C(=O)N1CCCC1 reported="7.00 to 8.00"

The compound listed as CC(=O)N1CCN(c2ccc(Nc3cc(NCc4cccc(F)c4F)c(C(N)=O)cn3)cc2)CC1 has a reported pIC50 of 7.00 to 8.00

The compound listed as NC(=O)c1cnc(Nc2ccc(C3CCN(C(=O)C4CCOCC4)CC3)cc2)cc1NCc1ccccc1F shows pIC50 equal to 7.00 to 8.00

// field: pIC50; key: Cc1cc(Nc2cc(NCc3cccc4ccsc34)c(C(N)=O)cn2)ccc1C(=O)N(C)C ; value = 7.00 to 8.00

----------
Listed below: IC50 values for each entry.
Target: JAK2 (Homo sapiens, UniProt O60674)
Construct: 5 μl of catalytic domain recombinant Kinase enzyme+Tyr peptide substrate (Invitrogen, CA)
Assay: Z'-LYTE kinase assay JAK2

Worked set:
compound="CCC(=O)N(C)c1ccc(Nc2cc(NCc3cccc4ccsc34)c(C(N)=O)cn2)cc1 [Example 466]" reported="0.1 to 1 µM"
compound="COCC(=O)N1CCC[C@H](CNc2cc(Nc3ccc(OC)cc3)ncc2C(N)=O)C1 [Example 55]" reported="> 1 µM"
compound="C#CCNc1cc(Nc2ccc(C3CCOCC3)cc2)ncc1C(N)=O [Example 184]" reported="> 1 µM"

IC50 measured on NC(=O)c1cnc(Nc2ccc(C3CCOCC3)cc2)cc1NCC1CC1 [Example 153] = 0.1 to 1 µM

In plain terms, CC(=O)N(C)c1ccc(Nc2cc(NCc3cncc(F)c3)c(C(N)=O)cn2)cc1 [Example 483] has a documented IC50 of 0.1 to 1 µM

Briefly, IC50 measured for Cc1cc(Nc2cc(NCc3ccccc3)c(C(N)=O)cn2)ccc1C(=O)N1CCOCC1 [Example 447] : 0.01 to 0.1 µM

The compound listed as CN1C(=O)COc2ccc(Nc3cc(NCc4ccccc4)c(C(N)=O)cn3)cc21 [Example 85] has a reported IC50 of > 1 µM

For reference, reported IC50 for NC(=O)c1cnc(Nc2ccc(C3CNC3)cc2)cc1NCc1ccccc1 [Example 325] stands at 0.1 to 1 µM

Memo: Cc1ccc(Nc2cc(NCc3ccccc3)c(C(N)=O)cn2)cc1 [Example 10] , reported IC50: > 1 µM

----------
Target: JAK2 (Homo sapiens)
Construct: 5 μl of catalytic domain recombinant Kinase enzyme+Tyr peptide substrate (Invitrogen, CA)
Assay: Z'-LYTE kinase assay JAK2
pIC50: −log10 of the molar value.
# Lookup of reported pIC50 keyed by entry

Solved entries (count: 3):
chemical_structure=C[C@@H](Nc1cc(Nc2ccc(C3CCOCC3)cc2)ncc1C(N)=O)C(C)(C)C reported="7.00 to 8.00"
chemical_structure=COCC(=O)N1CC(c2ccc(Nc3cc(NCc4cccc(F)n4)c(C(N)=O)cn3)cc2)C1 reported="6.00 to 7.00"
chemical_structure=CN(C)C(=O)C1CCN(c2ccc(Nc3cc(NCc4cccc5sccc45)c(C(N)=O)cn3)cc2)CC1 reported="7.00 to 8.00"

Record NC(=O)c1cnc(Nc2ccc(C(F)(F)F)cc2)cc1NCc1cncc(F)c1 . Reported pIC50: < 6.00

CS(=O)(=O)N1CC(c2ccc(Nc3cc(NCc4ccccc4)c(C(N)=O)cn3)cc2)C1 yielded pIC50 of 6.00 to 7.00

pIC50 reported for this compound Cc1ccc(Nc2cc(NCc3cncc(F)c3)c(C(N)=O)cn2)cc1 : 6.00 to 7.00

Sample CC(=O)N1CCC[C@H](CNc2cc(Nc3ccc(NS(=O)(=O)N(C)C)cc3)ncc2C(N)=O)C1 ; pIC50 observed: 6.00 to 7.00

Lab note: measured pIC50 of NC(=O)c1cnc(Nc2ccc(OC(F)(F)F)cc2)cc1NCc1cncc(F)c1 was < 6.00

----------
Listing of recorded IC50 by entry.
Target: JAK3 (Homo sapiens, UniProt P52333)
Construct: 5 μl of catalytic domain recombinant Kinase enzyme+Tyr peptide substrate (Invitrogen, CA)
Sequence (P52333 822-1111 limits assumed): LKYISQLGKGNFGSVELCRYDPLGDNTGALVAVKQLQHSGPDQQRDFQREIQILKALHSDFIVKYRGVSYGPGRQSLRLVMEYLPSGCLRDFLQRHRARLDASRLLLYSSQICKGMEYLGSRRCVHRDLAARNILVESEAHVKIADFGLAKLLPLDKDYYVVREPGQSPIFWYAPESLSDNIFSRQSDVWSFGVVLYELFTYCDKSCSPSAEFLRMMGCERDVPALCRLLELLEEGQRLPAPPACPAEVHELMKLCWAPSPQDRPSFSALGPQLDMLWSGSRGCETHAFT
Assay: Z'-LYTE kinase assay JAK3

chemical_structure=CC(=O)N1CCN(c2ccc(Nc3cc(N[C@H]4CC[C@@H](O)CC4)c(C(N)=O)cn3)cc2)CC1 reported="10 to 100 nM"
chemical_structure=NC(=O)c1cnc(Nc2cccc(OCCN3CCCC3)c2)cc1NC1(c2ccccc2)CC1 reported="10 to 100 nM"
chemical_structure=NC(=O)c1cnc(Nc2cccc(C3CCOCC3)c2)cc1NCc1cc(F)cc(F)c1 reported="1 to 10 nM"
chemical_structure=COc1ccc(Nc2cc(Nc3ccc(C)cc3)c(C(N)=O)cn2)cc1 reported="> 1000 nM"
chemical_structure=CCC(=O)N1CCC(c2ccc(Nc3cc(NCc4cc(F)cc(F)c4)c(C(N)=O)cn3)cc2)CC1 reported="1 to 10 nM"
chemical_structure=CN(C)C(=O)c1ccc(Nc2cc(NCc3cccc4cc[nH]c34)c(C(N)=O)cn2)cc1 reported="1 to 10 nM"

Given the compound N#CCOc1cccc(Nc2cc(NCc3ccccc3)c(C(N)=O)cn2)c1 and test system JAK3 (Homo sapiens, UniProt P52333), the measured IC50 is 10 to 100 nM

Observed IC50 on JAK3 (Homo sapiens, UniProt P52333), entry NC(=O)c1cnc(Nc2ccc(C3CCN(CCF)CC3)cc2)cc1NCc1cccc(F)c1F , equals 1 to 10 nM

----------
Target: JAK3 (Homo sapiens)
Construct: 5 μl of catalytic domain recombinant Kinase enzyme+Tyr peptide substrate (Invitrogen, CA)
Experiment: Z'-LYTE kinase assay JAK3
pIC50: −log10 of the molar value.
value_type: pIC50

chemical_structure=NC(=O)c1cnc(Nc2ccc3ncccc3c2)cc1NCc1ccccc1 value_type=pIC50 reported="7.00 to 8.00"
chemical_structure=CC(=O)N(C)c1ccc(Nc2cc(NC3(c4ccccc4)CC3)c(C(N)=O)cn2)cc1 value_type=pIC50 reported="6.00 to 7.00"
chemical_structure=Cc1cc(Nc2cc(NCc3cccc(F)c3F)c(C(N)=O)cn2)ccc1C(=O)N1CCCC1 value_type=pIC50 reported="> 9.00"
chemical_structure=NC(=O)c1cnc(Nc2cccc(OCCN3CCCC3)c2)cc1NCc1cccc(F)c1 value_type=pIC50 reported="8.00 to 9.00"
chemical_structure=Cc1cc(Nc2cc(NCc3cncnc3)c(C(N)=O)cn2)ccc1C(=O)N(C)C value_type=pIC50 reported="6.00 to 7.00"

For NC(=O)c1cnc(Nc2cccc(C3CCOCC3)c2)cc1NCc1cc(F)ccc1F the compound record lists pIC50 as 8.00 to 9.00

Query CCC(=O)N1CCC(c2ccc(Nc3cc(NC4(c5ccccc5)CC4)c(C(N)=O)cn3)cc2)CC1 yields pIC50 of 7.00 to 8.00

pIC50 reported for this compound CCC(=O)N1CCC(c2ccc(Nc3cc(N[C@H](C)C(C)(C)C)c(C(N)=O)cn3)cc2)CC1 : 8.00 to 9.00

// pIC50 lookup, compound = Cc1cc(Nc2cc(NCc3ccccc3)c(C(N)=O)cn2)ccc1C(=O)N(C)C , result: 8.00 to 9.00

GET /value?item= NC(=O)c1cnc(Nc2ccc(C3CNC3)cc2)cc1NCc1cccc(F)c1F &field=pIC50 returns 8.00 to 9.00

The compound listed as CN(C)C(=O)c1ccc(Nc2cc(NCc3cccc(-n4cccn4)c3)c(C(N)=O)cn2)cc1 has a reported pIC50 of 7.00 to 8.00

Kindly note the recorded pIC50 for NC(=O)c1cnc(Nc2ccc(OCC(=O)N3CCOCC3)cc2)cc1NCc1ccccc1 , which is 7.00 to 8.00

Given item COc1ccc(Nc2cc(N[C@H]3CCCN(C(C)=O)C3)c(C(N)=O)cn2)cc1 , the value recorded as its pIC50 is < 6.00

Reported pIC50 for CC(=O)N1CCN(c2ccc(Nc3cc(NCc4ccccc4)c(C(N)=O)cn3)cc2C)CC1 was 8.00 to 9.00
